# assayed-system: T1, Murine B7-H4-Fc (Mouse B7H4 ECD, Fc_6His) (mouse, UniProt Q7TSP5 25-257)
# T1 construct: extracellular domain; also called mouse B7-H4-Fc; FcHis6 tagged murine B7-H4
# T1 sequence (Q7TSP5 whole entry, looked up): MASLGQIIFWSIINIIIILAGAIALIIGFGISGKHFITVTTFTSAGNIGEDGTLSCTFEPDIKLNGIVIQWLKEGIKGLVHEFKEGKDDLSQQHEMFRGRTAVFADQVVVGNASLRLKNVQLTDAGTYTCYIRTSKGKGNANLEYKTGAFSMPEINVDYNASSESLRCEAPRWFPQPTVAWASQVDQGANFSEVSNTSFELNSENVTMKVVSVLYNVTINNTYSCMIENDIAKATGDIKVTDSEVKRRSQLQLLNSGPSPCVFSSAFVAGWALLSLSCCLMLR
# assay-info: HTRF binding, murine IgG1
measurement-name: Max

# binder, measurement-name, measured-value
rows = [
    ("ZY0EP0-C07 murine IgG1 (antibody, V domains shown, also called ZY0EPO-C07) VH: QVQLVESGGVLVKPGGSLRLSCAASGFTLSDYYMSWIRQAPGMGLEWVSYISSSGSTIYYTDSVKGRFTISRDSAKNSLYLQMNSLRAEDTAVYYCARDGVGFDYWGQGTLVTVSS VL: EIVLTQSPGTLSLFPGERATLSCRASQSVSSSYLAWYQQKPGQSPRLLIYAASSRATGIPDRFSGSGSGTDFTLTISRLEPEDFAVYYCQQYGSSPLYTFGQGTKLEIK", "Max", 1910),
    ("ZY0EO5-E07 murine IgG1 (antibody, V domains shown, also called ZY0E05-E07; E05-E07) VH: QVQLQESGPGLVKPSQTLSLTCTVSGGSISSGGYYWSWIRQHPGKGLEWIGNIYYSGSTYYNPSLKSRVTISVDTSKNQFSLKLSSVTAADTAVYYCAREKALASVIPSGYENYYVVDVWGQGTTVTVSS VL: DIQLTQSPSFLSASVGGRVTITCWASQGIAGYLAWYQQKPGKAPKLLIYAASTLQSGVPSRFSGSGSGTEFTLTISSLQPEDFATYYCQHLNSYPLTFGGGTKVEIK", "Max", 1700),
    ("ZY0EOB-F05 murine IgG1 (antibody, V domains shown) VH: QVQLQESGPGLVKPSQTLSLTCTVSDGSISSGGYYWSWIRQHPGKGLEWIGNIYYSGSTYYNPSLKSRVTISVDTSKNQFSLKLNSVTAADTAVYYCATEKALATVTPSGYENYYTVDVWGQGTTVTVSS VL: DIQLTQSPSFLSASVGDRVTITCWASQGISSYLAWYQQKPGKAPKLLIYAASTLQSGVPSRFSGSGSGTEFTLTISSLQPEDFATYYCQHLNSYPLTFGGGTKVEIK", "Max", 2190),
    ("ZY0EQD-E02 murine IgG1 (antibody, V domains shown) VH: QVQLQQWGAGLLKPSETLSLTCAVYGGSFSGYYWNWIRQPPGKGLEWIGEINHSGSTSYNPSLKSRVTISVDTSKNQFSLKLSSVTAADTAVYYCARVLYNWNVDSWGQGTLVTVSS VL: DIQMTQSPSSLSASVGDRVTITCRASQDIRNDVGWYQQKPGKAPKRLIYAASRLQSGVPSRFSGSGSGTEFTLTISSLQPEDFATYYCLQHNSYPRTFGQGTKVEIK", "Max", 447),
    ("ZY0EPQ-E02 murine IgG1 (antibody, V domains shown) VH: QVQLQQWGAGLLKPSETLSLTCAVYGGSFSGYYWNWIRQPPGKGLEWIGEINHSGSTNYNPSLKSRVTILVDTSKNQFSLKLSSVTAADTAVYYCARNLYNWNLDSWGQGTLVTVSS VL: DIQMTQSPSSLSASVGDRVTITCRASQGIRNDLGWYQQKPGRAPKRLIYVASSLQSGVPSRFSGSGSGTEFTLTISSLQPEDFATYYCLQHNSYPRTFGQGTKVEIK", "Max", 790),
]
